Reported shrunken log2 fold change is given for each of the following sequences.
System: Escherichia coli TOP10
TEST_PROTOCOL: shrunken log2 fold change of peptide-encoding DNA abundance (4.5 h post-induction vs induction); higher = less antimicrobial activity (less host growth inhibition)
CONDITION_PARAMETERS: time post-induction: 4.5 h; library: site-saturation at positions 5, 18, 19, 20
Provide a numeric answer; units are not to be included.

// known answers, use as guide
Tell me its shrunken log2 fold change given RRIRMRPPRLPRPRPRPRATPRP as the entry.
1.57

Tell me its shrunken log2 fold change given RRIRNRPPRLPRPRPRPAHVPRP as the entry.
-0.0508

Continuing:
Tell me its shrunken log2 fold change given RRIRYRPPRLPRPRPRPGWPPRP as the entry.
0.0827

Tell me its shrunken log2 fold change given RRIRPRPPRLPRPRPRPKRHPRP as the entry.
0.267

Tell me its shrunken log2 fold change given RRIRRRPPRLPRPRPRPCVTPRP as the entry.
-0.0627

Tell me its shrunken log2 fold change given RRIRHRPPRLPRPRPRPQCNPRP as the entry.
-0.169

Tell me its shrunken log2 fold change given RRIRHRPPRLPRPRPRPSVEPRP as the entry.
-0.2

Tell me its shrunken log2 fold change given RRIRGRPPRLPRPRPRPGWMPRP as the entry.
0.315

Tell me its shrunken log2 fold change given RRIRTRPPRLPRPRPRPDQNPRP as the entry.
0.0691

Tell me its shrunken log2 fold change given RRIRYRPPRLPRPRPRPTERPRP as the entry.
-0.532

Tell me its shrunken log2 fold change given RRIRGRPPRLPRPRPRPSRKPRP as the entry.
0.293

Tell me its shrunken log2 fold change given RRIRIRPPRLPRPRPRPLQNPRP as the entry.
-0.359

Tell me its shrunken log2 fold change given RRIRERPPRLPRPRPRPWGWPRP as the entry.
0.173

Tell me its shrunken log2 fold change given RRIRFRPPRLPRPRPRPMIGPRP as the entry.
0.0266

Tell me its shrunken log2 fold change given RRIRPRPPRLPRPRPRPEGGPRP as the entry.
0.329

Tell me its shrunken log2 fold change given RRIRQRPPRLPRPRPRPDVTPRP as the entry.
0.143

Tell me its shrunken log2 fold change given RRIRYRPPRLPRPRPRPVYMPRP as the entry.
-1.34

Tell me its shrunken log2 fold change given RRIRLRPPRLPRPRPRPTPLPRP as the entry.
0.296

Tell me its shrunken log2 fold change given RRIRRRPPRLPRPRPRPQKQPRP as the entry.
0.338

---

Reported shrunken log2 fold change is given for each of the following sequences.
Tested on: Escherichia coli TOP10;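 further: peptides expressed intracellularly from a pBAD plasmid library in pooled LB shake-flask culture, induced with 0.3% L-arabinose, DNA abundance read by NGS, three biological replicates, DESeq2 with apeglm shrinkage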
TEST_PROTOCOL: shrunken log2 fold change of peptide-encoding DNA abundance (4.5 h post-induction vs induction); higher = less antimicrobial activity (less host growth inhibition)
CONDITION_PARAMETERS: time post-induction: 4.5 h; library: site-saturation at positions 5, 18, 19, 20
Provide a numeric answer; units are not to be included.

Tell me its shrunken log2 fold change given RRIRCRPPRLPRPRPRPGCPPRP as the entry.
0.239

Tell me its shrunken log2 fold change given RRIRDRPPRLPRPRPRPHEVPRP as the entry.
0.0253

Tell me its shrunken log2 fold change given RRIRGRPPRLPRPRPRPPRRPRP as the entry.
1.28
